- tested_system: T1, biotinylated goat anti-human kappa light chain
- T1 construct: positive control of the ELISA
- protocol_summary: ELISA, positive control; further: test concentration or dose not given here
parameter_measured: optical density (OD)
Your answer should be a plain number; it is taken to be in OD.

Worked cases, optical density given:
375_A07 (antibody, V domains shown, Group III) VH: EVQLLESGGGLVQPGGSLRLSCAASGFTFDSYSMNWVRQAPGKGLEWVSSINYNSGYTGYADSVKGRFTISRDNSKNTLYLQMNSLRAEDTAVYYCARGANWHDTHLDYWGQGTLVTVSS VL: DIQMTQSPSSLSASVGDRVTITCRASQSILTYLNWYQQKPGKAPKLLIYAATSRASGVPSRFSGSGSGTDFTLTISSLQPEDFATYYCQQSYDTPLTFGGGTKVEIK
3.11
376_A03 (antibody, V domains shown, Group III) VH: EVQLLESGGGLVQPGGSLRLSCAASGFTFSSYGMNWVRQAPGKGLEWVAGINYNGGYTGYADSVKGRFTISRDNSKNTLYLQMNSLRAEDTAVYYCARGANWHDTALDYWGQGTLVTVSS VL: DIQMTQSPSSLSASVGDRVTITCRASQSILTYLNWYQQKPGKAPKLLIYAATSRASGVPSRFSGSGSGTDFTLTISSLQPEDFATYYCQQSYSTPLTFGGGTKVEIK
3.23

Next item in the queue.
Problem: Return reported optical density; argument: 371_G04 (antibody, V domains shown, Group III) VH: EVQLLESGGGLVQPGGSLRLSCAASGFTFDSYSMNWVRQAPGKGLEWVSGINYNGGYKSYADSVKGRFTISRDNSKNTLYLQMNSLRAEDTAVYYCARGANWHDTALDYWGQGTLVTVSS VL: DIQMTQSPSSLSASVGDRVTITCRASQSILSYLNWYQQKPGKAPKLLIYAATSLHSGVPSRFSGSGSGTDFTLTISSLQPEDFATYYCQQSYESPLTFGGGTKVEIK
Result: 3.54
